test system: LXRb homodimer (NR concentration 270 nM); assay: PBM binding z-score (relative to random genomic background probes); higher = stronger binding; sequences stand for … in GC…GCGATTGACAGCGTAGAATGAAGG
Quick rule: PBM binding z-score of at least 0.2 means true (1), below that means false (0).

[[record]]
primarysequence = "GCATATAGGTAATACAAGGTGGAAGTCCGATTGT"
cat = "false (0)"

[[record]]
primarysequence = "GCTATTAGTTGAAAGGTCAACCGAATGATTCTCG"
cat = "true (1)"

[[record]]
primarysequence = "CCTACTGGGCCATCAGGTCATTTATATCAACGTT"
cat = "false (0)"

[[record]]
primarysequence = "CAAACTAGATCAAAGGTCAAAGTCGAGCCAACCA"
cat = "true (1)"

[[record]]
primarysequence = "GCGACTGGGGCATCAGCAGGTAACCATAACTTAA"
cat = "false (0)"

[[record]]
primarysequence = "CCTACTGGGCCATTCTGAGGTCATTGATCATATG"
cat = "false (0)"

[[record]]
primarysequence = "ACTAGTTGGTTAGCTGAGGTCACACACAATTCGG"
cat = "true (1)"

[[record]]
primarysequence = "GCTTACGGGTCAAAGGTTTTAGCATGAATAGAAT"
cat = "true (1)"

[[record]]
primarysequence = "CCGACTGGTGCATAAGGTTACCATAAGCCAGCCC"
cat = "false (0)"

[[record]]
primarysequence = "CCGAGTAGGTTATGGGGAATTCAGGCAACGGTGA"
cat = "true (1)"

[[record]]
primarysequence = "ATGGAAAGGTCGACGAGGTGAGTATACACCGTTT"
cat = "true (1)"

[[record]]
primarysequence = "ATCGAAAGGTCGAAGGTGAGTAGACCCACCCGAA"
cat = "true (1)"


* * *

The entries below come with measured PBM binding z-score values attached.
system: RARa homodimer (NR concentration 270 nM); assay: PBM binding z-score (relative to random genomic background probes); higher = stronger binding; sequences stand for … in GC…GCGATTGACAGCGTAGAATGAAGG
valueKind: PBM binding z-score

[[record]]
primarysequence = "AGTCAAAGTTCAACTAGGTAACGTAAGATATGCT"
numericreadout = 2.01

[[record]]
primarysequence = "CAAACTAGGTCAAGAGGTCAAAGTGCGCTTCCCG"
numericreadout = 2.21

[[record]]
primarysequence = "TCTATGAGTTGATTAGGGCAACCGAAACAGCGGA"
numericreadout = -0.0986

[[record]]
primarysequence = "TCATATAGGTAAATGCTGGGTGAAAGTCCGATCT"
numericreadout = 1.19

[[record]]
primarysequence = "TCTTCTAGATCAAGCAGGTTAAGAAAGCCTGAGT"
numericreadout = -0.00815

[[record]]
primarysequence = "ACAGACAGCTGAGTGAAGGTAACTCAGCTGGACG"
numericreadout = -0.693


* * *

test system: PPARg homodimer (NR concentration 180 nM); experiment: PBM binding z-score (relative to random genomic background probes); higher = stronger binding; sequences stand for … in GC…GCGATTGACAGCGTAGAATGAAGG
Quick rule: PBM binding z-score of at least 1 means satisfied, below that means not satisfied.

[[record]]
primarysequence = "CCTACTGGGCCATCAGTTCATTGATATCAACGTT"
cat = "not satisfied"

[[record]]
primarysequence = "AGAACGAGGGCAATGAGATGATAGCACGGGTGGC"
cat = "not satisfied"

[[record]]
primarysequence = "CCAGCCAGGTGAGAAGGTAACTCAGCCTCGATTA"
cat = "not satisfied"

[[record]]
primarysequence = "CCTTACGGGTCACGAGGTTATAGCTCGACGAGCG"
cat = "satisfied"

[[record]]
primarysequence = "TATACAGGGTCAAATGCCAGAGTACGAATGTCGA"
cat = "satisfied"

[[record]]
primarysequence = "CTACCAAGGTGAACTAGGTCGTTGATTACTATTC"
cat = "not satisfied"

[[record]]
primarysequence = "CCTCGGAGGACAACAGGAGGTCAGAGCGGCCAGA"
cat = "satisfied"

[[record]]
primarysequence = "TCAGACAGGTGAAGGTAACTCAGGTACGCAGTCG"
cat = "not satisfied"

[[record]]
primarysequence = "AGAATGAGGCTATACGTAGATCAGGGAAGAAAGT"
cat = "not satisfied"

[[record]]
primarysequence = "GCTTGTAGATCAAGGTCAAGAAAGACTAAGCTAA"
cat = "satisfied"

[[record]]
primarysequence = "CCGACTGGGGCAAAGGTGACCATACTCAGTACGA"
cat = "satisfied"

[[record]]
primarysequence = "ATATGTAGATTAGCTGGGGTCATTCAGACTAGGC"
cat = "satisfied"

[[record]]
primarysequence = "ATAACAAGGTGATCGTGAGGTCGTTGATACTAAC"
cat = "not satisfied"

[[record]]
primarysequence = "CGACCAAGGTCAGAGAGGTCAGTGAATGCCGAGT"
cat = "satisfied"

[[record]]
primarysequence = "AATACAGGGTCATCGTAGGCCAGAATACGCACAG"
cat = "satisfied"

[[record]]
primarysequence = "CCTACTGGGCCTAAAAGGTCATTGATGCCGATAA"
cat = "satisfied"

[[record]]
primarysequence = "ACTTGTTGGTCAGCTGAGGTCACACACAATTCGG"
cat = "satisfied"

[[record]]
primarysequence = "TCATAGAGGTAAATGCTAGGTGAAAGTCCGATCT"
cat = "not satisfied"

[[record]]
primarysequence = "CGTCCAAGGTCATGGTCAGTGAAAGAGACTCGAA"
cat = "satisfied"

[[record]]
primarysequence = "TCATATAGGTATAAGGTGAAAGTCGGTGTGGTAA"
cat = "satisfied"

[[record]]
primarysequence = "CGAACTAGGTCATTGACAGGAAAGTGAATAGTAA"
cat = "satisfied"

[[record]]
primarysequence = "TCTTGTAGATCAACGGGAGGTTAAGAAAGATCGA"
cat = "not satisfied"

[[record]]
primarysequence = "AGAACGAGGCCAATGAGTTGATAGCACGGGTGGC"
cat = "not satisfied"

[[record]]
primarysequence = "AGAATGAGGTTATTCAGATCAGGGAATTGCGGTC"
cat = "not satisfied"

[[record]]
primarysequence = "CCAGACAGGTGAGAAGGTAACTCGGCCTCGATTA"
cat = "not satisfied"

[[record]]
primarysequence = "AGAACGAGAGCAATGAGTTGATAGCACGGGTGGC"
cat = "not satisfied"

[[record]]
primarysequence = "CTAACTAGGTCAGAACAGGACAGTGAAGGATGAT"
cat = "satisfied"

[[record]]
primarysequence = "TAGCCTAGGTCACTCAGGGGCCAGTATAGAAAGC"
cat = "satisfied"

[[record]]
primarysequence = "AGAACCAGGGCACGCTGAGTTGATAGCAGAGTAG"
cat = "not satisfied"

[[record]]
primarysequence = "CCGACCGGGGCATAAGGTTACCATAAGCCAGCCC"
cat = "not satisfied"

[[record]]
primarysequence = "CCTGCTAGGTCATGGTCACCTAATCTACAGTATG"
cat = "satisfied"

[[record]]
primarysequence = "CGAACTAGGTCAGGACAGGACAGTGAAGGATGAT"
cat = "not satisfied"

[[record]]
primarysequence = "ACAGACAGGTGAGGGAAGGTAACTCAGCTGGACG"
cat = "not satisfied"

[[record]]
primarysequence = "CGTCCACGGTCAATGCTAGGTCAGTGAAAGCATT"
cat = "not satisfied"

[[record]]
primarysequence = "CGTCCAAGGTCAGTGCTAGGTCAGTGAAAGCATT"
cat = "satisfied"

[[record]]
primarysequence = "AGAATGAGGTTACCAAAGATCATGGAAACGCTTG"
cat = "not satisfied"

[[record]]
primarysequence = "ACAGACAGGTGATGAAGGAAACTCAGGCTATCAT"
cat = "not satisfied"

[[record]]
primarysequence = "ATATGTAGGTTACATCCGGGTTATTCAGGCTATG"
cat = "satisfied"

[[record]]
primarysequence = "GCTGCTAGGTCAGGTTCGTCAGCTAACGGGTACG"
cat = "not satisfied"

[[record]]
primarysequence = "ATCTCTAGGTAAGACTCAGTTCAGTGATGAACGC"
cat = "satisfied"

[[record]]
primarysequence = "CTACCAAGGTGTACAAGGTCGTTGATTACTATTC"
cat = "not satisfied"

[[record]]
primarysequence = "CGTCCAAGGTCAATGCTAGGTCAGGGAAAGCATT"
cat = "satisfied"

[[record]]
primarysequence = "ATATGTAGGTTATCGGGTGATTCAGTTTGCGCAT"
cat = "satisfied"

[[record]]
primarysequence = "TCATATAGGTAAAAGGTTAAAGTCGGTGTGGTAA"
cat = "satisfied"

[[record]]
primarysequence = "TTACCAAGCTGAAAGGTCGTTGATGCACGCCTTG"
cat = "not satisfied"


* * *

The entries below come with measured PBM binding z-score values attached.
system: RARa homodimer (NR concentration 270 nM); experiment: PBM binding z-score (relative to random genomic background probes); higher = stronger binding; sequences stand for … in GC…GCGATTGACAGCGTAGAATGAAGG
valueKind: PBM binding z-score

[[record]]
primarysequence = "GCTAGTTGGTCAGTAGAAGGTCACACACCGGTCG"
result = 0.845

[[record]]
primarysequence = "TCTTGTAGATCAAGTAGGTTAAGAAAGCCTGAGT"
result = 0.0237

[[record]]
primarysequence = "TCTCGGAGGACACGGAGGTCAGAGCTTTCCAGAG"
result = -0.596

[[record]]
primarysequence = "AGTCAAAGTTCAGGACGAGGTATCGTAAAGCACG"
result = 0.462

[[record]]
primarysequence = "TCTAGTTGGTCAAAGGTCACACAATCGAAATGCG"
result = 3.91

[[record]]
primarysequence = "TCTTGTAGAACAATAGAGGTTAAGAAAGTGCGCT"
result = 0.27

[[record]]
primarysequence = "CCTCGTTGGTCAAGGTCACACACGCTATAGGTAC"
result = 2.69

[[record]]
primarysequence = "AGTCAAAGTTCAGGATGAGGTAACGTAAAGCACG"
result = 0.768

[[record]]
primarysequence = "AGTTACGGGTCAACGAGGTTATAGCACGCGTATA"
result = 0.766

[[record]]
primarysequence = "ATCGAGAGGTCGACGAGGTGAGTATACACCGTTT"
result = -0.215

[[record]]
primarysequence = "TATACAGGGTCAAAGGCCAGACTACGAATGTCGA"
result = 1.41

[[record]]
primarysequence = "TGTGAAAGTTCAAAGGTAACGTAAGTATCCACAC"
result = 1.81

